- target or test system: Human M4 (Homo sapiens, UniProt P08173)
- Sequence (P08173 whole entry): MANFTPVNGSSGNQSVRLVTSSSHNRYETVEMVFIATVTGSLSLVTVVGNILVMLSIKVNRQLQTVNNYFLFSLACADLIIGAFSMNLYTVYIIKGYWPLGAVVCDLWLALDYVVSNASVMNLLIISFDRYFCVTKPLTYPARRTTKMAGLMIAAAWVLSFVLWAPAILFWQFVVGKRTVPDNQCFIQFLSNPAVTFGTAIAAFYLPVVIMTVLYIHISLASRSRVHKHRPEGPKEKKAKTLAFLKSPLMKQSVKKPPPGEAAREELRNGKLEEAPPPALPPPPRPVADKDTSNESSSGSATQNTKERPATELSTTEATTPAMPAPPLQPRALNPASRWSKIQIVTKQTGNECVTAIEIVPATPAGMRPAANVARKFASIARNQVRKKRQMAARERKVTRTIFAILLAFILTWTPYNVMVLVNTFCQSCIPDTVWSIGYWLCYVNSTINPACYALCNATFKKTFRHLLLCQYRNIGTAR
- assay details: mAChR M4 cell-based functional assay (calcium flux, antagonism of EC80 acetylcholine response)
- condition summary: M4/Gqi5/CHO-K1 cells; concentration-dependent decrease of the response elicited by an EC80 concentration of acetylcholine
readout: log10(IC50) (log10 of the value in nM)
On a log10 scale: recorded IC50, unit nM.

Look at each molecule and report its log10(IC50).
1. CCNC(=O)c1ccc(-c2ccc(N[C@H]3C[C@@H]4CN(CC5CCOCC5)C[C@@H]4C3)nn2)cc1
2. [2H]C([2H])([C@H]1CCCOC1)N1C[C@H]2C[C@H](Nc3ccc(-c4cc(F)cc(C(=O)NC)c4)nn3)C[C@H]2C1

Found:
1: 0.32; 2: 2.53

---

- target or test system: Human M4 (Homo sapiens)
- assay details: mAChR M4 cell-based functional assay (calcium flux, antagonism of EC80 acetylcholine response)
- condition summary: M4/Gqi5/CHO-K1 cells; concentration-dependent decrease of the response elicited by an EC80 concentration of acetylcholine
pIC50: −log10 of the molar value.
Use 8 as the dividing line for pIC50, with the line itself on the Met side and lower values as Not met.

INSERT INTO measurements (molecule, target_or_test_system, answer_label) VALUES
  ('CCN(CC)C(=O)c1ccc(-c2ccc(N[C@H]3C[C@@H]4CN(CC5CCOCC5)C[C@@H]4C3)nn2)c(F)c1 [Compound A38]', 'Human M4 (Homo sapiens)', 'Not met');

Lookup: Given [2H]C([2H])([C@H]1CCCCO1)N1C[C@H]2C[C@H](Nc3ccc(-c4cc(F)cc(C(=O)NC)c4)nn3)C[C@H]2C1 [Compound A87] , state whether its pIC50 is at least 8.
Found: Met

Lookup: Same question, [2H]C([2H])(C1CCOCC1)N1C[C@H]2C[C@H](Nc3ccc(-c4cc(C(=O)NC)ccc4F)nn3)C[C@H]2C1 [Compound A69] this time
Found: Not met

Lookup: Same question, O=C(c1ccc(-c2ccc(N[C@H]3C[C@@H]4CN(CC5CCOCC5)C[C@@H]4C3)nn2)cc1)N1CCC(O)C1 (stereo partly drawn) [Compound A25] this time
Found: Not met

Lookup: Same question, [2H]C([2H])(C1CCOCC1)N1C[C@H]2C[C@H](Nc3ccc(-c4cccc(C(=O)NC)c4)nn3)C[C@H]2C1 (single isomer, unassigned) [Compound A42] this time
Found: Not met

---

- target or test system: Human M4 (Homo sapiens, UniProt P08173)
- Construct: expressed in transfected cells; host or cells: CHO-K1 (ATCC), co-transfected with chimeric G protein Gqi5
- assay details: mAChR M4 cell-based functional assay (calcium flux, antagonism of EC80 acetylcholine response)
- condition summary: M4/Gqi5/CHO-K1 cells; % ACh maximum at 30 μM; read-out: Human M4 Emin (% ACh maximum at 30 μM)
readout: remaining activity at 30 µM (%)
Answers are plain numbers, in %.

Worked examples, 5 molecules total:
INSERT INTO measurements (molecule, target_or_test_system, readout, measurement_units, readout_value) VALUES
  ('[2H]C([2H])(C1CCOCC1)N1C[C@H]2C[C@H](Nc3ccc(-c4cccc(C(=O)NC5CC5)c4)nn3)C[C@H]2C1 [Compound A33]', 'Human M4 (Homo sapiens, UniProt P08173)', 'remaining activity at 30 µM', '%', 3),
  ('[2H]C([2H])(C1CCOC(C)(C)C1)N1C[C@H]2C[C@H](Nc3ccc(-c4cc(F)cc(C(=O)NC)c4)nn3)C[C@H]2C1 (stereo partly drawn) [Compound A83]', 'Human M4 (Homo sapiens, UniProt P08173)', 'remaining activity at 30 µM', '%', 4),
  ('CNC(=O)c1cccc(-c2ccc(N[C@H]3C[C@@H]4CN(CC5CCOCC5)C[C@@H]4C3)nn2)c1 [Compound A41]', 'Human M4 (Homo sapiens, UniProt P08173)', 'remaining activity at 30 µM', '%', 5),
  ('CNC(=O)c1ccccc1-c1ccc(N[C@H]2C[C@@H]3CN(CC4CCOCC4)C[C@@H]3C2)nn1 [Compound A45]', 'Human M4 (Homo sapiens, UniProt P08173)', 'remaining activity at 30 µM', '%', 6),
  ('N#CCC(=O)Nc1cc(F)c(F)c(-c2ccc(N[C@H]3C[C@@H]4CN(CC5CCOCC5)C[C@@H]4C3)nn2)c1 [Compound A16]', 'Human M4 (Homo sapiens, UniProt P08173)', 'remaining activity at 30 µM', '%', 4);

Please look at the following molecule next.
Lookup: # lookup: remaining activity at 30 µM of CNC(=O)c1ccc(-c2ccc(N[C@H]3C[C@@H]4CN(CC5CCOCC5)C[C@@H]4C3)nn2)cc1 [Compound A63]
Found: 3

The reported numbers originate from patent US20240228468A1.
